Listed sequences paired with reported Fold Increase in Lag Time
measured on: Aβ1-40 (Homo sapiens, UniProt P05067)
Sequence (P05067 672-711): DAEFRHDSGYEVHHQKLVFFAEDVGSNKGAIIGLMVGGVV
experimental conditions: Table VI; unmodified peptides, 100 mole %;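 note: Aβ nucleation assay tracking fiber polymerization from monomer by turbidity (light scattering), shaken continuously in 96-well plates, read every 15 min over 5 h, compared with compound-free control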
Ends that are not written are not given here.

>  <sequence data>
SNKGAIIGLMVGGVV [PPI-230, Aβ26-40]

>  <result operator>
=

>  <Fold Increase in Lag Time [fold]>
0.8

$$$$
>  <sequence data>
KLVFFAEDVGSNKGA [PPI-228, Aβ16-30]

>  <result operator>
>

>  <Fold Increase in Lag Time [fold]>
4.5

$$$$
>  <sequence data>
HDSGYEVHHQKLVFF [PPI-226, Aβ6-20]

>  <result operator>
=

>  <Fold Increase in Lag Time [fold]>
1.66

$$$$
